Papp A→B at 60 min, 10 μM reference
# ASSAY SUMMARY: Caco-2 cell permeability assay (A-B and B-A)
# Format: in vitro ADME
# EXPERIMENTAL PARAMETERS: human, A-B direction

CC[C@@H](NC(=O)N1C(=O)[C@H](Cc2ccnc(N)c2)[C@H]1C(=O)N(C)c1ncncn1)C1CCCCC1 ... 11 to 30 ×10⁻⁶ cm/s
CC[C@@H](NC(=O)N1C(=O)[C@H](Cc2ccnc(N)c2)[C@H]1C(=O)N(C)c1ccncc1)C1CCCCC1 ... ≤ 10 ×10⁻⁶ cm/s
CC[C@@H](NC(=O)N1C(=O)[C@H](Cc2ccnc(N)c2)[C@H]1C(=O)N(C)c1ncccn1)c1cccnc1 ... ≤ 10 ×10⁻⁶ cm/s
CC[C@@H](NC(=O)N1C(=O)[C@H](Cc2ccnc(N)c2)[C@H]1C(=O)N(C)c1ccccc1)c1cccc(Cl)c1 ... 11 to 30 ×10⁻⁶ cm/s
CCC[C@@H](NC(=O)N1C(=O)[C@H](Cc2ccnc(N)c2)[C@H]1C(=O)N(C)c1ccncc1)c1ccccc1 ... ≤ 10 ×10⁻⁶ cm/s
CC[C@H](NC(=O)N1C(=O)[C@H](Cc2ccnc(N)c2)[C@H]1C(=O)N(C)c1ccncc1)c1ccccc1C ... ≤ 10 ×10⁻⁶ cm/s

Request: I have this compound here, CCN(C(=O)[C@@H]1[C@@H](Cc2ccnc(N)c2)C(=O)N1C(=O)N[C@@H](C1CCCCC1)C(F)(F)F)c1ccccc1 , and I need its recorded Papp A→B at 60 min, 10 μM.
Response: 11 to 30 ×10⁻⁶ cm/s

Request: // same read-out, input: CN(C(=O)[C@@H]1[C@@H](Cc2ccnc(N)c2)C(=O)N1C(=O)N[C@@H](C1CCCCC1)C(F)(F)F)c1ccncc1
Response: 11 to 30 ×10⁻⁶ cm/s

Request: // same read-out, input: CC[C@@H](NC(=O)N1C(=O)[C@H](Cc2ccnc(N)c2)[C@H]1C(=O)N(CC)c1ncccn1)C1CCCCC1
Response: 11 to 30 ×10⁻⁶ cm/s

Request: // same read-out, input: CCC[C@@H](NC(=O)N1C(=O)[C@H](Cc2ccnc(N)c2)[C@H]1C(=O)N(C)c1ccccc1)C1CCCCC1
Response: 31 to 50 ×10⁻⁶ cm/s

Request: // same read-out, input: CC[C@@H](NC(=O)N1C(=O)[C@H](Cc2cc(C)nc(N)c2)[C@H]1C(=O)N(C)c1ccccc1)c1cccc(Cl)c1
Response: 11 to 30 ×10⁻⁶ cm/s

Request: // same read-out, input: CC[C@@H](NC(=O)N1C(=O)[C@H](Cc2ccnc(N)c2)[C@H]1C(=O)N(C)c1ccncc1)c1ccccc1Cl
Response: ≤ 10 ×10⁻⁶ cm/s

Request: // same read-out, input: CC[C@@H](NC(=O)N1C(=O)[C@H](Cc2ccnc(N)c2)[C@H]1C(=O)N(C)c1ncccn1)c1ccccc1
Response: ≤ 10 ×10⁻⁶ cm/s

Request: // same read-out, input: CC[C@@H](NC(=O)N1C(=O)[C@H](Cc2ccnc(N)c2)[C@H]1C(=O)N(C)c1cccc(OC)c1)C1CCCCC1
Response: 11 to 30 ×10⁻⁶ cm/s
